Tested on: NCI-H292 lung cancer cells
procedure_summary: FDA drug screening, complete media vs cholesterol-free media without statin (TABLE 1)
Format: cell-based, human
test_conditions: NCI-H292 cells, cholesterol-free media without statin, FDA drug library screen
Counter-ions that a name gives are not always drawn.
Tick yes (1) if Cholesterol-free is 0.3 or greater. Tick no (0) if Cholesterol-free is less than 0.3.

compound: CC(=O)Nc1cccc(-n2c(=O)n(C3CC3)c(=O)c3c(Nc4ccc(I)cc4F)n(C)c(=O)c(C)c32)c1 [Trametinib (DMSO solvate)]
group_label: no (0)
--
compound: NC(=O)[C@@H]1CC[C@@H]2CN1C(=O)N2OS(=O)(=O)O [Avibactam (sodium hydrate)]
group_label: yes (1)
--
compound: O=C1c2c(O)ccc(O)c2C(=O)c2c(NCCNCCO)ccc(NCCNCCO)c21 [Mitoxantrone]
group_label: no (0)
--
compound: COc1ccc(-c2ccc3cc(C(=O)O)ccc3c2)cc1C12CC3CC(CC(C3)C1)C2 [Adapalene]
group_label: yes (1)
--
compound: Cc1ccc(S(=O)(=O)NC(=O)NN2CC3CCCC3C2)cc1 (centres unmarked) [Gliclazide]
group_label: yes (1)
--
compound: COc1c(OCCCN2CCOCC2)ccc2c1N=C(NC(=O)c1cnc(N)nc1)N1CCN=C21 [Copanlisib (dihydrochloride)]
group_label: no (0)
--
compound: COc1ccc(NC(=O)c2ccc(C(=N)N(C)C)cc2)c(C(=O)Nc2ccc(Cl)cn2)c1 [Betrixaban]
group_label: yes (1)
--
compound: NCCCC[C@H](N)C(=O)O.O=C(O)COc1nn(Cc2ccccc2)c2ccccc12 [Bendazac L-Lysine]
group_label: yes (1)

###

Each entry below lists one item and its recorded Difference value.
System: NCI-H292 lung cancer cells
procedure_summary: FDA drug screening, complete media vs cholesterol-free media with simvastatin (TABLE 2)
Format: cell-based, human
test_conditions: complete media vs cholesterol-free media + simvastatin (0.04 μM); >0 enhanced anti-cancer activity, about 0 neutral, <0 antagonist
Counter-ions that a name gives are not always drawn.
measurement_kind: Difference

compound: COc1cc2ncnc(Nc3ccc(F)c(Cl)c3)c2cc1OCCCN1CCOCC1 [Gefitinib (hydrochloride)]
measurement_kind: Difference
assay_value: −0.08
//
compound: N#CC(c1ccc(Cl)cc1)c1c(Cl)cc(-n2ncc(=O)[nH]c2=O)cc1Cl (stereo not shown)
measurement_kind: Difference
assay_value: −0.08
//
compound: C[C@@H](O)[C@H]1C(=O)N2C(C(=O)O)=C(S[C@@H]3CN[C@H](CNS(N)(=O)=O)C3)[C@H](C)[C@H]12 [Doripenem (monohydrate)]
measurement_kind: Difference
assay_value: −0.15
//
compound: CC(=O)Oc1cccc2c1C(=O)c1c(OC(C)=O)cc(C(=O)O)cc1C2=O
measurement_kind: Difference
assay_value: −0.17
//
compound: Nc1ccc(S(=O)(=O)Nc2ncccn2)cc1 [Sulfadiazine (sodium)]
measurement_kind: Difference
assay_value: −0.26
//
compound: Cc1cc(-n2c(=O)[nH]c(=O)n(C)c2=O)ccc1Oc1ccc(SC(F)(F)F)cc1
measurement_kind: Difference
assay_value: −0.13
//
compound: c1cnc2cc3c(cc2n1)[C@@H]1CNC[C@H]3C1 [Varenicline (Hydrochloride)]
measurement_kind: Difference
assay_value: −0.21
//
compound: C[C@@H](c1ncncc1F)[C@](O)(Cn1cncn1)c1ccc(F)cc1F
measurement_kind: Difference
assay_value: −0.22
//
compound: O=C(CO)[C@@H](O)[C@H](O)[C@H](O)CO
measurement_kind: Difference
assay_value: −0.87
//
compound: CCCN1CCCC[C@H]1C(=O)Nc1c(C)cccc1C [Ropivacaine (hydrochloride)]
measurement_kind: Difference
assay_value: −0.20
//
compound: CCOc1ccc2nc(SCCN3CCOCC3)[nH]c2c1 [Fabomotizole (hydrochloride)]
measurement_kind: Difference
assay_value: −0.22
//
compound: CN1CC2c3ccccc3Oc3ccc(Cl)cc3C2C1 (stereo not shown)
measurement_kind: Difference
assay_value: −0.22
//
compound: C[C@@](Cc1ccc(O)c(O)c1)(NN)C(=O)O
measurement_kind: Difference
assay_value: −0.74
//
compound: CC[C@H]1[C@@H](O)[C@@H]2[C@H](CC[C@]3(C)[C@@H]([C@H](C)CCC(=O)O)CC[C@@H]23)[C@@]2(C)CC[C@@H](O)C[C@@H]12
measurement_kind: Difference
assay_value: −0.13
//
compound: CC(C)c1cc2c(cc1S(=O)(=O)O)[C@@]1(C)CCC[C@@](C)(C(=O)O)[C@@H]1CC2 [Ecabet (sodium)]
measurement_kind: Difference
assay_value: −0.21
//
compound: CC(C)(C)c1cc(NC(=O)Nc2ccc(-c3cn4c(n3)sc3cc(OCCN5CCOCC5)ccc34)cc2)no1
measurement_kind: Difference
assay_value: −0.21

###

Test system: NCI-H292 lung cancer cells
procedure_summary: FDA drug screening, complete media vs cholesterol-free media without statin (TABLE 1)
Format: cell-based, human
test_conditions: NCI-H292 cells, cholesterol-free media without statin
Structures can show the parent of a compound that is named as a salt.
Collected Cholesterol-free values appear next to each entry.
measurement_kind: Cholesterol-free

compound: CCCc1nc(C)c2c(=O)[nH]c(-c3cc(S(=O)(=O)N4CCN(CC)CC4)ccc3OCC)nn12 [Vardenafil (hydrochloride)]
measurement_kind: Cholesterol-free
assay_value: 1.352
//
compound: COc1ccc(C(=O)c2ccccc2)c(O)c1
measurement_kind: Cholesterol-free
assay_value: 1.383
//
compound: CCCCN1CCCC[C@H]1C(=O)Nc1c(C)cccc1C [Levobupivacaine (hydrochloride)]
measurement_kind: Cholesterol-free
assay_value: 1.298
//
compound: CC(C(=O)O)c1cccc(C(=O)c2ccccc2)c1 (centres unmarked)
measurement_kind: Cholesterol-free
assay_value: 1.284
//
compound: CC(C)c1ccc2oc3nc(N)c(C(=O)O)cc3c(=O)c2c1
measurement_kind: Cholesterol-free
assay_value: 1.264

###

Test system: NCI-H292 lung cancer cells
procedure_summary: FDA drug screening, complete media vs cholesterol-free media with simvastatin (TABLE 2)
Type: cell-based, human
test_conditions: NCI-H292 cells, FDA drug library screen, cholesterol-free media with simvastatin 0.04 μM
measurement_kind: Cholesterol-free media + simvastatin (0.04 μM)

compound: Cc1nc(Nc2ncc(C(=O)Nc3c(C)cccc3Cl)s2)cc(N2CCN(CCO)CC2)n1
target_under_test: NCI-H292 lung cancer cells
assay_value: 0.3286
--
compound: CC(=O)NC(CCC(N)=O)C(=O)O (stereo not drawn) [Aceglutamide]
target_under_test: NCI-H292 lung cancer cells
assay_value: 0.762
--
compound: Oc1ccc(C=Cc2cc(O)cc(O)c2)cc1
target_under_test: NCI-H292 lung cancer cells
assay_value: 0.7896
--
compound: CN(C)C(=O)c1ccc(S(=O)(=O)c2ccc(NC(=O)[C@@](C)(O)C(F)(F)F)c(Cl)c2)cc1
target_under_test: NCI-H292 lung cancer cells
assay_value: 0.8136
--
compound: C#CCC(Cc1cnc2nc(N)nc(N)c2n1)c1ccc(C(=O)N[C@@H](CCC(=O)O)C(=O)O)cc1 (stereo partly drawn) [Pralatrexate]
target_under_test: NCI-H292 lung cancer cells
assay_value: 0.194
--
compound: c1ccc2[nH]c(-c3cscn3)nc2c1
target_under_test: NCI-H292 lung cancer cells
assay_value: 0.9537
--
compound: O=C[C@H](O)[C@@H](O)[C@H](O)CO (racemic) [DL-Xylose]
target_under_test: NCI-H292 lung cancer cells
assay_value: 0.8322
--
compound: CC(=O)[C@H]1CC[C@H]2[C@@H]3CCC4=CC(=O)CC[C@]4(C)[C@H]3CC[C@]12C
target_under_test: NCI-H292 lung cancer cells
assay_value: 1.054
--
compound: CC1=C(/C=C/C(C)=C/C=C/C(C)=C/C(=O)O)C(C)(C)CCC1
target_under_test: NCI-H292 lung cancer cells
assay_value: 0.9194

###

Test system: NCI-H292 lung cancer cells
procedure_summary: FDA drug screening, complete media vs cholesterol-free media without statin (TABLE 1)
Type: cell-based, human
test_conditions: NCI-H292 cells, complete media
Rule: Complete below 0.8 gives 1, anything at or above gives -1.

compound: CN1C[C@H](CNC(=O)OCc2ccccc2)C[C@@H]2c3cccc4c3c(cn4C)C[C@H]21 [Metergoline]
group_label: 1
--
compound: OC(Cn1cncn1)(Cn1cncn1)c1ccc(F)cc1F [Fluconazole]
group_label: -1
--
compound: O=P(O)(O)C(O)(Cc1cccnc1)P(=O)(O)O [Risedronate (sodium)]
group_label: 1
--
compound: CC(C(=O)O)c1cccc(C(=O)c2ccccc2)c1 (centres unmarked) [Ketoprofen]
group_label: -1

###

System: NCI-H292 lung cancer cells
procedure_summary: FDA drug screening, complete media vs cholesterol-free media with simvastatin (TABLE 2)
Assay type: cell-based, human
test_conditions: NCI-H292 cells, complete media; FDA drug library screen (TABLE 2)
Structures can show the parent of a compound that is named as a salt.

compound: CN1C2CCCC1CC(NC(=O)c1nn(C)c3ccccc13)C2 (stereo not shown) [Granisetron (Hydrochloride)]
Complete Media: 0.8536
--
compound: CCOC(=O)CC(=O)N1CCSC1COc1ccccc1OC (stereo not shown)
Complete Media: 0.879
--
compound: COC(=O)C[C@](O)(CCC(C)(C)O)C(=O)O[C@@H]1C(OC)=C[C@]23CCCN2CCc2cc4c(cc2[C@H]13)OCO4
Complete Media: −0.002434
--
compound: Cc1nc(NC(=O)N2CCC[C@H]2C(N)=O)sc1-c1ccnc(C(C)(C)C(F)(F)F)c1
Complete Media: 0.5502
